testMethodNotes: Oral bioavailability in Sprague-Dawley rat at 10 mg/kg administered as single dose by ESI-LC-MS/MS method
Assay type: ADME, organism-based
conditionSet: in vivo
observationType: bioavailability (%)
Give bare numbers, in %.

Recall and state the measured bioavailability for Cc1nnc(C)n1-c1ccc(O[C@H]2c3cc(Cl)cc(Cl)c3C[C@@H]2N2CC[C@@H](O)C2)c(F)c1.O=P(O)(O)O .
42

====

Assign pIC50 to each entry below.
systemUnderTest: Sodium/hydrogen exchanger 3 (Homo sapiens)
Sequence (P48764 whole entry): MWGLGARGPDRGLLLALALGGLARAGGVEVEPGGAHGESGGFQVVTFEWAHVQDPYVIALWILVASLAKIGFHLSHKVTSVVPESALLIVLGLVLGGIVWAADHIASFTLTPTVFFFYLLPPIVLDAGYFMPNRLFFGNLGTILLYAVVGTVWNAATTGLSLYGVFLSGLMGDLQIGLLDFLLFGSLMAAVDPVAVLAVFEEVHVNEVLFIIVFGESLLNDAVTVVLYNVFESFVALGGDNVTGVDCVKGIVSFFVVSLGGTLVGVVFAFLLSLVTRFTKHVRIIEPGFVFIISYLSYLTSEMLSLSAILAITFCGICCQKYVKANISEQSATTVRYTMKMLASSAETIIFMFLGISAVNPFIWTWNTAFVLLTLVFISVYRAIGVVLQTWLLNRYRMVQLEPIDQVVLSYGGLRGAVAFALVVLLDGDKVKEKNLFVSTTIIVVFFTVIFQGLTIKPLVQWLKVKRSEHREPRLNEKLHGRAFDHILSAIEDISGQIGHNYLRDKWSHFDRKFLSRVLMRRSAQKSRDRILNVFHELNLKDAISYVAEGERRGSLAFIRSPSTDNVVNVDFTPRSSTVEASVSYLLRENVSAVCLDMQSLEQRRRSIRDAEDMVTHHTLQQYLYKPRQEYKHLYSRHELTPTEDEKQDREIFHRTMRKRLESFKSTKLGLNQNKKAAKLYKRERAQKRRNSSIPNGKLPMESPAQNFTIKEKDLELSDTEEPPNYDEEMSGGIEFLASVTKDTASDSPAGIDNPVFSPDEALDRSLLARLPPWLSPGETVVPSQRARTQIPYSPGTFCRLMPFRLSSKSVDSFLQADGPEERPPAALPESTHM
testMethodNotes: Inhibition of human NHE3 expressed in LAP1 cell assessed as intracellular pH recovery measured for 2 mins by CECF-AM dye based FLIPR assay
Give bare numbers, as −log10 of the molar value.

# map each compound to its pIC50
1. Cc1nnc(C)n1-c1ccc(O[C@H]2c3ccccc3C[C@@H]2N2CCCC2)c(Cl)c1
2. CS(=O)(=O)c1ccc(O[C@H]2c3cc(Cl)cc(Cl)c3C[C@@H]2N2CCNCC2)cc1
3. Cc1nnc(C)n1-c1ccc(O[C@H]2c3ccccc3C[C@@H]2N2CCCC2)cc1

1. 7.11
2. 7.66
3. 6.46
